Data origin, for the record: ChEMBL document CHEMBL3217528

TARGET OR TEST SYSTEM: Cannabinoid receptor 1 (Homo sapiens, UniProt P21554)
Sequence (P21554 whole entry): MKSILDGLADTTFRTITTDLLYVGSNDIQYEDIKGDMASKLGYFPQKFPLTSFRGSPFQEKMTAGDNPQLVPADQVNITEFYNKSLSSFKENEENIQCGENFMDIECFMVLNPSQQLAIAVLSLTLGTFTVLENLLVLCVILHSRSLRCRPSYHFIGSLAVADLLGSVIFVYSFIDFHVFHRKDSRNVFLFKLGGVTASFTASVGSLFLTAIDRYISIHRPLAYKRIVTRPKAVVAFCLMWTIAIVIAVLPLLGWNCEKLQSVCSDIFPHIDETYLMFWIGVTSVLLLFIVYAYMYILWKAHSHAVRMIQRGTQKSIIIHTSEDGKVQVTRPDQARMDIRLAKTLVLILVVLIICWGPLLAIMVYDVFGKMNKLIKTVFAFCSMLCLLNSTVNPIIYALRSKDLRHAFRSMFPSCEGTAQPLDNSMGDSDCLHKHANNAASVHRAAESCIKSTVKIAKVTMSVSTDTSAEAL
METHOD NOTES: Displacement of [3H]CP55,940 from human recombinant CB1 receptor expressed in CHO-K1 cells
Below, each entry is listed with its recorded Ki.
MEASURED PROPERTY: Ki

query_smiles=O=C1N=C2SCCN2C1(c1ccccc1)c1ccccc1 measured_property=Ki result="> 10 µM"
query_smiles=O=C1/C(=C/c2ccc(Br)cc2)N=C2SCCCN12 measured_property=Ki result="> 10 µM"
query_smiles=CC(C)c1ccc(/C=C2\N=C3SCCCN3C2=O)cc1 measured_property=Ki result="> 10 µM"
query_smiles=O=C1/C(=C/c2cccc(OCc3ccccc3Cl)c2)N=C2SCCCN12 measured_property=Ki result="> 10 µM"
query_smiles=O=C1/C(=C/c2cccc(OCc3cccc(Cl)c3)c2)N=C2SCCCCN12 measured_property=Ki result="2.16 µM"
query_smiles=O=C1N=C2SCCCN2C1(c1ccccc1)c1ccccc1 measured_property=Ki result="> 10 µM"
query_smiles=O=C1/C(=C/c2cccc(Oc3ccccc3)c2)N=C2SCCCCN12 measured_property=Ki result="1.6 µM"
query_smiles=COc1ccc(/C=C2\N=C3SCCCN3C2=O)cc1OC measured_property=Ki result="> 10 µM"
query_smiles=O=C1N2CCCCSC2=NC1(c1ccccc1)c1ccccc1 measured_property=Ki result="1.34 µM"
query_smiles=CCOC(=O)COc1cccc(/C=C2\N=C3SCCCCN3C2=O)c1 measured_property=Ki result="4.78 µM"
query_smiles=O=C1N2CCCSC2=NC1(c1ccccc1)c1ccccc1 measured_property=Ki result="> 10 µM"
query_smiles=O=C1/C(=C/C=C/c2ccccc2)N=C2SCCCN12 measured_property=Ki result="> 10 µM"
query_smiles=O=C1/C(=C/c2cccc(F)c2F)N=C2SCCCN12 measured_property=Ki result="> 10 µM"
query_smiles=O=C1/C(=C/c2ccccc2)N=C2SCCCN12 measured_property=Ki result="> 10 µM"
query_smiles=COc1cccc(/C=C2\N=C3SCCCN3C2=O)c1OC measured_property=Ki result="> 10 µM"
query_smiles=CN(C)c1ccc(/C=C2\N=C3SCCCN3C2=O)cc1 measured_property=Ki result="> 10 µM"
query_smiles=O=C1/C(=C/c2cccc(OCc3ccc(F)cc3)c2)N=C2SCCCCN12 measured_property=Ki result="0.85 µM"
query_smiles=O=C1/C(=C/c2ccc([N+](=O)[O-])cc2)N=C2SCCCN12 measured_property=Ki result="> 10 µM"
query_smiles=O=C1/C(=C/c2cccc(Cl)c2Cl)N=C2SCCCN12 measured_property=Ki result="> 10 µM"
query_smiles=O=C(Oc1cccc(/C=C2\N=C3SCCCN3C2=O)c1)c1ccc(Cl)cc1 measured_property=Ki result="> 10 µM"
query_smiles=COc1ccc(/C=C2\N=C3SCCCN3C2=O)c(OC)c1 measured_property=Ki result="≥ 10 µM"
query_smiles=O=C1/C(=C/c2ccccc2Cl)N=C2SCCCN12 measured_property=Ki result="> 10 µM"
query_smiles=O=C1/C(=C/c2cccc(OCc3ccccc3Cl)c2)N=C2SCCCCN12 measured_property=Ki result="2.29 µM"
query_smiles=O=C1/C(=C/c2cccc(OCc3ccc(Cl)cc3)c2)N=C2SCCCN12 measured_property=Ki result="> 10 µM"
